Cited source for all entries: patent US10209240B2

Test system: hES cells
Test Summary: devTOX computational model predictions (Version 2.0, Version 2.1) from hES cell metabolomics
Assay type: cell-based, human
Condition Details: single dose per treatment (Dose column)
Measured Endpoint: Model Predictions Version 2.0

{"columns": ["Molecule", "Measured Endpoint", "Experimental Value"],
 "data": [
  ["CN(C)CCOC(C)(c1ccccc1)c1ccccn1 (centres unmarked)", "Model Predictions Version 2.0", "Non"],
  ["CN(C)CCOC(c1ccccc1)c1ccccc1 [Diphenhydramine]", "Model Predictions Version 2.0", "Non"],
  ["O=C1NS(=O)(=O)c2ccccc21", "Model Predictions Version 2.0", "Non"],
  ["NC(=O)N1c2ccccc2C=Cc2ccccc21 [Carbamazepine]", "Model Predictions Version 2.0", "Ter"],
  ["Nc1nc(N)c2nc(CNc3ccc(C(=O)N[C@@H](CCC(=O)O)C(=O)O)cc3)cnc2n1", "Model Predictions Version 2.0", "Ter"]
]}

### Prompt Which Model Predictions Version 2.0 is reported for this molecule? CCN(CC)CCNC(=O)c1cc(Cl)c(N)cc1OC [Metoclopramide]
### Response Ter

### Prompt Which Model Predictions Version 2.0 is reported for this molecule? Nc1nc2ncc(CNc3ccc(C(=O)N[C@@H](CCC(=O)O)C(=O)O)cc3)nc2c(=O)[nH]1
### Response Ter

----------
Tested on: hES cells
Test Summary: ADMA/cystine ratio simplified predictive model in hES cell spent media
Type: cell-based, human
Condition Details: single dose per treatment; ratios less than 0.9 indicate teratogenicity
Text: This simplified model is based on a ratio of the reference treatment (DMSO) normalized values of ADMA and cystine. The X-axis is the reference normalized ratio of ADMA/Cystine. The y-axis is the training set of pharmaceuticals. Grey color with triangle glyphs represents teratogens and black color with circle glyphs represents non-teratogens. Each glyph point represents the media value of an independent experimental block (6 reps per block). The crosshair glyphs mark the sample medians. […]
Measured Endpoint: Model Predictions ADMA/Cystine

{"columns": ["Compound", "Target Of Assay", "Measured Endpoint", "Experimental Value"],
 "data": [
  ["CN(Cc1cnc2nc(N)nc(N)c2n1)c1ccc(C(=O)N[C@@H](CCC(=O)O)C(=O)O)cc1 [Methotrexate]", "hES cells", "Model Predictions ADMA/Cystine", "Ter"],
  ["CN(C)CCOC(C)(c1ccccc1)c1ccccn1 (stereo not drawn)", "hES cells", "Model Predictions ADMA/Cystine", "Non"],
  ["O=C1NC(=O)C(c2ccccc2)(c2ccccc2)N1", "hES cells", "Model Predictions ADMA/Cystine", "Non"],
  ["NNC(=O)c1ccncc1", "hES cells", "Model Predictions ADMA/Cystine", "Non"]
]}

### Prompt Which Model Predictions ADMA/Cystine is reported for this compound? CC1=C(/C=C/C(C)=C/C=C/C(C)=C/CO)C(C)(C)CCC1
### Response Non

### Prompt Which Model Predictions ADMA/Cystine is reported for this compound? O=C1CCC(N2C(=O)c3ccccc3C2=O)C(=O)N1 (stereo not drawn) [Thalidomide]
### Response Ter

### Prompt Which Model Predictions ADMA/Cystine is reported for this compound? CC1=C(/C=C/C(C)=C/C=C/C(C)=C\C(=O)O)C(C)(C)CCC1 [13-cis Retinoic Acid]
### Response Ter

### Prompt Which Model Predictions ADMA/Cystine is reported for this compound? CC1(C)S[C@@H]2[C@H](NC(=O)Cc3ccccc3)C(=O)N2[C@H]1C(=O)O
### Response Non

### Prompt Which Model Predictions ADMA/Cystine is reported for this compound? NC(=O)NO [Hydroxyurea]
### Response Ter
